These entries and their values trace back to patent US20050112573A1.

The compounds listed here are annotated with their level of expressed mRNA in the presence of chemical substance/in its absence.
System: yeast genes (level of expressed mRNA)
test_details: DNA chip analysis of expressed mRNA of yeast genes after 2 h culture with a toxic chemical substance
Assay type: cell-based, Saccharomyces cerevisiae S288C
protocol_conditions: gene YNR002C
measurement_kind: level of expressed mRNA in the presence of chemical substance/in its absence

compound: CCCCC[C@H](O)CC(=O)CCc1ccc(O)c(OC)c1
assay_target: yeast genes (level of expressed mRNA)
experimental_result: 2.1
//
compound: C=CC=O
assay_target: yeast genes (level of expressed mRNA)
experimental_result: 1.2
//
compound: COc1cc(CNC(=O)CCCCC=CC(C)C)ccc1O [(12), 8-methyl-N-vanillyl-6-nonenamide]
assay_target: yeast genes (level of expressed mRNA)
experimental_result: 1.2
//
compound: S=C([S-])NCCNC(=S)[S-].[Zn+2] [(11), zinc N,N′-ethylenebis(dithiocarbamate)]
assay_target: yeast genes (level of expressed mRNA)
experimental_result: 1.6

====

Test system: yeast genes (level of expressed mRNA)
test_details: DNA chip analysis of expressed mRNA of yeast genes after 2 h culture with a toxic chemical substance
Format: cell-based, Saccharomyces cerevisiae S288C
protocol_conditions: gene YBR063C
Procedure: Yeast (Saccharomyces cerevtisiae S288C (α SUC2mal mel gap2 CUP1)) were cultured at 25° C. on YPD medium (yeast extract 1%, polypepton 2%, glucose 2%). One of toxic chemical substances was added to the cell at logarithmic growth phase, and the cell was further cultured for two hours. Cell was cultured without any chemical substance in the same condition, and was used as control. Concentrations of the chemical substances were defined to inhibit the growth of the yeast but not lead to death. […]
measurement_kind: The level of expressed mRNA in the presence of chemical substance/absence: YBR063C

molecule: CCCCCCCCCCCCOS(=O)(=O)[O-].[Na+] [(18), sodium lauryl sulfate]
experimental_result: 1.2
--
molecule: CCCCC[C@H](O)CC(=O)CCc1ccc(O)c(OC)c1
experimental_result: 1.7
--
molecule: COc1cc(CNC(=O)CCCCC=CC(C)C)ccc1O [(12), 8-methyl-N-vanillyl-6-nonenamide]
experimental_result: 1.1
--
molecule: C[S+](C)[O-] [(15), dimethylsulfoxide]
experimental_result: 1.6
--
molecule: C=CC=O
experimental_result: 1.7

====

System: yeast genes (level of expressed mRNA)
test_details: DNA chip analysis of expressed mRNA of yeast genes after 2 h culture with a toxic chemical substance
Assay type: cell-based, Saccharomyces cerevisiae S288C
protocol_conditions: gene YDR366C
Catalogue of The level of expressed mRNA in the presence of chemical substance/absence: YDR366C readings, one per entry.
measurement_kind: The level of expressed mRNA in the presence of chemical substance/absence: YDR366C

compound: CCCCCCCCCCCCOS(=O)(=O)[O-].[Na+] [(18), sodium lauryl sulfate]
experimental_result: 0.9
--
compound: COc1cc(CNC(=O)CCCCC=CC(C)C)ccc1O [(12), 8-methyl-N-vanillyl-6-nonenamide]
experimental_result: 0.6
--
compound: C=CC=O
experimental_result: 1.4
--
compound: S=C([S-])NCCNC(=S)[S-].[Zn+2] [(11), zinc N,N′-ethylenebis(dithiocarbamate)]
experimental_result: 1.7

====

Test system: yeast genes (level of expressed mRNA)
test_details: DNA chip analysis of expressed mRNA of yeast genes after 2 h culture with a toxic chemical substance
Assay type: cell-based, Saccharomyces cerevisiae S288C
protocol_conditions: gene YBR124W
Catalogue of The level of expressed mRNA in the presence of chemical substance/absence: YBR124W values
measurement_kind: The level of expressed mRNA in the presence of chemical substance/absence: YBR124W

compound: CCCCCCCCCCCCOS(=O)(=O)[O-].[Na+] [(18), sodium lauryl sulfate]
experimental_result: 0.9
//
compound: CCCCC[C@H](O)CC(=O)CCc1ccc(O)c(OC)c1 [(13), gingerol]
experimental_result: 0.9
//
compound: COc1cc(CNC(=O)CCCCC=CC(C)C)ccc1O [(12), 8-methyl-N-vanillyl-6-nonenamide]
experimental_result: 0.9
//
compound: S=C([S-])NCCNC(=S)[S-].[Zn+2] [(11), zinc N,N′-ethylenebis(dithiocarbamate)]
experimental_result: 0.4

====

The level of expressed mRNA in the presence of chemical substance/absence: YKL051W values for the compounds below.
Tested on: yeast genes (level of expressed mRNA)
test_details: DNA chip analysis of expressed mRNA of yeast genes after 2 h culture with a toxic chemical substance
Assay type: cell-based, Saccharomyces cerevisiae S288C
protocol_conditions: gene YKL051W
measurement_kind: The level of expressed mRNA in the presence of chemical substance/absence: YKL051W

compound: C[S+](C)[O-] [(15), dimethylsulfoxide]
assay_target: yeast genes (level of expressed mRNA)
experimental_result: 1.5

compound: COc1cc(CNC(=O)CCCCC=CC(C)C)ccc1O [(12), 8-methyl-N-vanillyl-6-nonenamide]
assay_target: yeast genes (level of expressed mRNA)
experimental_result: 0.8

compound: C=CC=O
assay_target: yeast genes (level of expressed mRNA)
experimental_result: 0.7

compound: CCCCC[C@H](O)CC(=O)CCc1ccc(O)c(OC)c1
assay_target: yeast genes (level of expressed mRNA)
experimental_result: 1.2

====

Test system: yeast genes (level of expressed mRNA)
test_details: DNA chip analysis of expressed mRNA of yeast genes after 2 h culture with a toxic chemical substance
Format: cell-based, Saccharomyces cerevisiae S288C
protocol_conditions: gene YPR172W
measurement_kind: The level of expressed mRNA in the presence of chemical substance/absence: YPR172W

compound: C=CC=O
assay_target: yeast genes (level of expressed mRNA)
experimental_result: 1.6
//
compound: CCCCCCCCCCCCOS(=O)(=O)[O-].[Na+] [(18), sodium lauryl sulfate]
assay_target: yeast genes (level of expressed mRNA)
experimental_result: 1.4
//
compound: COc1cc(CNC(=O)CCCCC=CC(C)C)ccc1O [(12), 8-methyl-N-vanillyl-6-nonenamide]
assay_target: yeast genes (level of expressed mRNA)
experimental_result: 0.8
//
compound: CCCCC[C@H](O)CC(=O)CCc1ccc(O)c(OC)c1
assay_target: yeast genes (level of expressed mRNA)
experimental_result: 1.3

====

System: yeast genes (level of expressed mRNA)
test_details: DNA chip analysis of expressed mRNA of yeast genes after 2 h culture with a toxic chemical substance
Format: cell-based, Saccharomyces cerevisiae S288C
protocol_conditions: gene YGL104C
Here the recorded level of expressed mRNA in the presence of chemical substance/in its absence is given for each entry.
measurement_kind: level of expressed mRNA in the presence of chemical substance/in its absence

molecule: CCCCCCCCCCCCOS(=O)(=O)[O-].[Na+] [(18), sodium lauryl sulfate]
assay_target: yeast genes (level of expressed mRNA)
experimental_result: 1.3
--
molecule: C=CC=O
assay_target: yeast genes (level of expressed mRNA)
experimental_result: 1.0
--
molecule: S=C([S-])NCCNC(=S)[S-].[Zn+2] [(11), zinc N,N′-ethylenebis(dithiocarbamate)]
assay_target: yeast genes (level of expressed mRNA)
experimental_result: 1.8
--
molecule: COc1cc(CNC(=O)CCCCC=CC(C)C)ccc1O [(12), 8-methyl-N-vanillyl-6-nonenamide]
assay_target: yeast genes (level of expressed mRNA)
experimental_result: 1.1

====

Below, each of the compounds is paired with its reported The level of expressed mRNA in the presence of chemical substance/absence: YNL253W value.
System: yeast genes (level of expressed mRNA)
test_details: DNA chip analysis of expressed mRNA of yeast genes after 2 h culture with a toxic chemical substance
Format: cell-based, Saccharomyces cerevisiae S288C
protocol_conditions: gene YNL253W
measurement_kind: The level of expressed mRNA in the presence of chemical substance/absence: YNL253W

compound: CCCCCCCCCCCCOS(=O)(=O)[O-].[Na+] [(18), sodium lauryl sulfate]
experimental_result: 1.2

compound: S=C([S-])NCCNC(=S)[S-].[Zn+2] [(11), zinc N,N′-ethylenebis(dithiocarbamate)]
experimental_result: 0.8

compound: COc1cc(CNC(=O)CCCCC=CC(C)C)ccc1O [(12), 8-methyl-N-vanillyl-6-nonenamide]
experimental_result: 0.8

compound: C[S+](C)[O-] [(15), dimethylsulfoxide]
experimental_result: 0.5

====

Test system: yeast genes (level of expressed mRNA)
test_details: DNA chip analysis of expressed mRNA of yeast genes after 2 h culture with a toxic chemical substance
Type: cell-based, Saccharomyces cerevisiae S288C
protocol_conditions: gene YBL001C
level of expressed mRNA in the presence of chemical substance/in its absence overview
measurement_kind: level of expressed mRNA in the presence of chemical substance/in its absence

molecule: CCCCC[C@H](O)CC(=O)CCc1ccc(O)c(OC)c1 [(13), gingerol]
experimental_result: 1.0
--
molecule: CCCCCCCCCCCCOS(=O)(=O)[O-].[Na+] [(18), sodium lauryl sulfate]
experimental_result: 1.8
--
molecule: S=C([S-])NCCNC(=S)[S-].[Zn+2] [(11), zinc N,N′-ethylenebis(dithiocarbamate)]
experimental_result: 2.3
--
molecule: C[S+](C)[O-] [(15), dimethylsulfoxide]
experimental_result: 1.0
